B1: 6NMW (parent)
chain: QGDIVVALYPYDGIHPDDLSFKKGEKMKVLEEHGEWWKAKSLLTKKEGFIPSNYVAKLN

- Variants of: B1
- assayMethodText: folding stability dG (cDNA display proteolysis); higher = more stable
- protocolConditions: PBS, room temperature
Consider the following variants and their measured folding stability dG readings.
valueKind: folding stability dG

variantName: N59I
result: 4 kcal/mol
//
variantName: A56N
result: 2.24 kcal/mol
//
variantName: A56F
result: 3.43 kcal/mol
//
variantName: V5S
result: 0.271 kcal/mol
//
variantName: P10I
result: 1.94 kcal/mol
//
variantName: E35T
result: 3.73 kcal/mol
//
variantName: G34P
result: 1.5 kcal/mol
//
variantName: E32M
result: 4.65 kcal/mol
//
variantName: S20W
result: 1.65 kcal/mol
//
variantName: N59G
result: 4.04 kcal/mol
//
variantName: H15W
result: 3.39 kcal/mol
//
variantName: L19A
result: -0.055 kcal/mol
//
variantName: L30N
result: 0.519 kcal/mol
//
variantName: E32V
result: 4.48 kcal/mol
